Consider molecules characterized by their log10 IC50 with UniProtKB P11712.
Sequence (P11712 whole entry): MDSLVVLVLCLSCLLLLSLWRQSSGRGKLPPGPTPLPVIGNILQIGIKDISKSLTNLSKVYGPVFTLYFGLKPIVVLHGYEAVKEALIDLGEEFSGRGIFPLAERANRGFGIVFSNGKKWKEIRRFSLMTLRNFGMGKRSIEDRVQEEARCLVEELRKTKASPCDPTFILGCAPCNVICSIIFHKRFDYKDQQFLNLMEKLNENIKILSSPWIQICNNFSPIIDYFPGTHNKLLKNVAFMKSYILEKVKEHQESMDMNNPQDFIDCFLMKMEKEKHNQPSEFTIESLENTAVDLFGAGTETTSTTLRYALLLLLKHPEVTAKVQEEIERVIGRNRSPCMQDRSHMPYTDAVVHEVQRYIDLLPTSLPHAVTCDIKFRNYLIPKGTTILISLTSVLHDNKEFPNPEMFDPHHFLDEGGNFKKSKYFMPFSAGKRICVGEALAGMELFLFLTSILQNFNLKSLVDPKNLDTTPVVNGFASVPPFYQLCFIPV
Record value = log10 of IC50 given in µM.

Incoming: Reported log10 IC50 for NNc1nc(-c2ccccc2)cs1 [2-Hydrazino-4-phenylthiazole] : what is it?
Outgoing: 0.95

Incoming: Same again, this time with C=CCc1cc(S(=O)(=O)c2ccc(O)c(CC=C)c2)ccc1O
Outgoing: -0.40

Incoming: Repeat with c1cc(CCCc2ccncc2)ccn1
Outgoing: 0.70

Incoming: How about this molecule: [I][Hg][I] [Mercury(II) iodide]
Outgoing: -0.27

Incoming: Then N#Cc1cc2ccccc2c2ccccc12 ?
Outgoing: 1.59

Incoming: Next molecule: CO/C=C(/C(=O)OC)c1ccccc1COc1cccc(C(F)(F)F)n1
Outgoing: 1.58

Incoming: Try this molecule next: O=S(=O)(Oc1ccc(Cl)cc1)c1ccccc1
Outgoing: 1.54

Incoming: Same question for COc1cc(Cl)ccc1Oc1ccc(Cl)cc1Cl please.
Outgoing: 1.08

Incoming: Note, next up: COC(=O)c1cncn1C(C)c1ccccc1.Cl (stereo not shown) [Metomidate hydrochloride]
Outgoing: 1.53

Incoming: Can you check O=S(=O)(O)C(F)(F)C(F)(F)C(F)(F)C(F)(F)C(F)(F)C(F)(F)C(F)(F)C(F)(F)F next?
Outgoing: -0.29
